System: MX-1 breast xenograft, nude mice, tumor weight T/C
Experiment: NCI In Vivo Anticancer Drug Screen. Data for tumor model Human Mammary Carcinoma MX-1 Xenograft (intrarenal inoculation) in NU/NU Swiss (nude) mice
Conditions: endpoint: mean tumor weight change; dose: 8.0 mg/kg/injection; schedule: Q01DX010 (sc); vehicle: water; higher = larger tumour
Inconclusive results are not listed.
The reader will find reported T/C values listed item by item below.
reported_metric: T/C

compound	result
OCC1OC(n2cnc3c2NC=NC[C@H]3O)CC1O (some centres undefined)	28 % of control
COc1cccc2c1C(=O)c1c(O)c3c(c(O)c1C2=O)C[C@@](O)(/C(CO)=N/NC(=O)c1ccc(Cl)c(Cl)c1)C[C@@H]3OC1CC(N)C(O)C(C)O1 (some centres undefined)	42 % of control
COc1cccc2c1C(=O)c1c(O)c3c(c(O)c1C2=O)C[C@@](O)(/C(C)=N/NC(=O)c1cccc([N+](=O)[O-])c1)C[C@@H]3OC1CC(N)C(O)C(C)O1 (some centres undefined)	43 % of control
OC(CCl)CN1CC[N+]2(CC1)CC[N+]1(CCN(CC(O)CCl)CC1)CC2 (centres undefined)	117 % of control
